# Test system: PC-3
# ASSAY_NOTES: NCI tumour cell line growth inhibition, 48 h
Active and inactive are the calls of the source. Rule as the data show it: active = GI50 up to about 1.1 µM and inactive = higher.
Classes used: active, inactive

# MOLECULE, TESTED_TARGET, GROUP
rows = [
    ("CCN(CCCl)c1cc(CN(C)C)cc(NC(=O)c2ccc(C(=O)Nc3cc(CN(C)C)cc(N(CC)CCCl)c3)cc2)c1", "PC-3", "active"),
    ("O=C1c2cc(Cl)ccc2N=C(NC2CCCC2)C2CSCN12 (stereo not given)", "PC-3", "inactive"),
    ("CCOP(=O)(OCC)C(F)(F)c1ccc(CC(NC(=O)OC(C)(C)C)C(=O)O)cc1 (stereo not given)", "PC-3", "inactive"),
    ("Cc1nn(C(=O)c2ccccc2O)c2c1C(c1ccc(O)cc1)SC(=N)N2 (stereo not given)", "PC-3", "inactive"),
    ("Nc1ncnc2c1cnn2COCC(O)CO (stereo not given)", "PC-3", "inactive"),
]

====

# Test system: SNB-19
# ASSAY_NOTES: NCI tumour cell line growth inhibition, 48 h
Active and inactive are the calls of the source. No stated cut-off is given here; in the data, active = GI50 up to about 1.1 µM and inactive = higher.
Classes used: TRUE for active, FALSE for inactive

# MOLECULE, GROUP
measured = [
    ("Cc1cnc2c(c1)C(=O)N(c1ccc(Br)cc1)S2(=O)=O", "FALSE"),
    ("O=C(c1ccc(Cl)c(Cl)c1)N(C(=S)OC12CC3CC(CC(C3)C1)C2)c1ccccc1", "FALSE"),
    ("CC(=O)N1C(C(=O)NC2CCCCC2)CSC1c1ccccc1 (stereo unspecified)", "FALSE"),
    ("CN1c2ccccc2C(=O)NC12CCNCC2", "FALSE"),
    ("COc1ccc(N2C(=O)C3c4[nH]c5cccc(C)c5c4C4CCC(C(C)(C)C)CC4C3C2=O)cc1 (stereo unspecified)", "FALSE"),
    ("C[N+]1(C)[C@@H]2CC[C@H]1C[C@@H](OC(=O)C(CO)c1ccccc1)C2 (stereo partly specified) [ATROPINE METHYLBROMIDE]", "FALSE"),
    ("O=c1c(-c2cccc3ccccc23)c(-c2cccc3ccccc23)c1=O", "FALSE"),
    ("CCOC(=O)C(c1c[nH]c2ccccc12)(c1c[nH]c2ccccc12)c1c[nH]c2ccccc12", "FALSE"),
    ("COc1cc(NS(C)(=O)=O)ccc1Nc1cc(C)nc2ccc3[nH]ccc3c12", "FALSE"),
    ("O=C1CCCC2COc3ccc(O)c1c32 (stereo unspecified)", "FALSE"),
    ("Cc1cc(O)c2c3c1C(=O)Oc1c(CO)c(O)c(C(=O)O)c(c1O3)C=NN=Cc1c3c(c(CO)c(O)c1C(=O)O)OC(=O)c1c(C)cc(O)c(c1O3)C=NN=C2", "FALSE"),
    ("CC(=O)Oc1ccc2c(C)cc(=O)oc2c1", "FALSE"),
    ("CC1=C(C(=O)Nc2cc(=O)n(C)c(=O)n2C)C(c2cccc([N+](=O)[O-])c2)C(C(=O)Nc2cc(=O)n(C)c(=O)n2C)=C(C)N1", "FALSE"),
    ("COc1cccc(C23CCCC(C2)NCC3Br)c1OC (stereo unspecified)", "FALSE"),
    ("O=C1/C(=C/c2ccccc2)CNC/C1=C\\c1ccccc1", "FALSE"),
    ("CCc1ccc(CCN2CCCCC2)nc1", "FALSE"),
    ("CCSC1=N/C(=C\\c2ccco2)C(NN)=N1", "FALSE"),
    ("C[C@H]1CC(=O)[C@@]2(O)C#C/C=C\\C#C[C@@H]3Nc4c(cc(O)c5c4C(=O)c4ccccc4C5=O)[C@]24O[C@]314", "TRUE"),
    ("O=C(Cc1nc2c3c(ccc2nc1O)C(=O)c1ccccc1C3=O)C(=O)Nc1ccccc1[N+](=O)[O-]", "FALSE"),
    ("CC(=O)Nc1ccc(-c2nc3cc(Cl)ccc3o2)cc1", "FALSE"),
    ("Cn1c(-c2ccccc2)c2cc3nc4ccccc4nc3cc2c1-c1ccccc1", "FALSE"),
]

====

# Tested on: 786-0
# ASSAY_NOTES: NCI tumour cell line growth inhibition, 48 h
Calls of active or inactive are those of the source. No stated cut-off is given here; in the data, active = GI50 up to about 1.1 µM and inactive = higher.
Outcomes: active, inactive

# COMPOUND, GROUP
data = [
    ("CCC(C)(C)c1ccc(Oc2cccc(C(=O)O)c2)cc1", "inactive"),
    ("CCCCCCCCCCCCCCCCCCCCCC(=O)Nc1ccn(C2OC(CO)C(O)C2O)c(=O)n1 (stereo not given)", "inactive"),
    ("C/C(CC(=O)Nc1cc(C)ccc1C)=N\\NC(=O)c1ccncc1", "inactive"),
    ("O=C(c1ccc(Cl)c(Cl)c1)N(C(=S)OC12CC3CC(CC(C3)C1)C2)c1ccccc1", "inactive"),
    ("O=c1c2cc(I)ccc2nc(Sc2ccc([N+](=O)[O-])cc2[N+](=O)[O-])n1Cc1ccccc1", "active"),
    ("CC1=CCC([C@@](C)(O)CCCC(C)(C)N=C=S)CC1 (stereo not given in full)", "inactive"),
    ("COc1cc(C2C3=C(NC(=O)C2C#N)c2ccc4ccccc4c2OCC3)cc(OC)c1OC (stereo not given)", "inactive"),
    ("Cc1cc(NCCCCCCCCNc2cc(C)nc3cc(N(C)C)ccc23)c2ccc(N(C)C)cc2n1", "inactive"),
    ("CN(C)CCNC(=O)c1cccc2c(NC(CS)C(=O)O)c3ccccc3[n+](C)c12 (stereo not given)", "inactive"),
    ("CCOC(=O)c1cnc2cc3cccccc3n2c1=O", "inactive"),
    ("CCN(CC)C(=S)SS(=O)(=O)c1ccccc1[N+](=O)[O-]", "inactive"),
    ("SC1=NC2=C(CSC/C2=C\\c2ccc(Cl)cc2)C(c2ccc(Cl)cc2)N1 (stereo not given)", "inactive"),
    ("O=C1Nc2cc(F)ccc2C1=O", "inactive"),
    ("CC[C@H]1C=CCC[C@@]2(C[C@@H]3CC[C@H]4[C@@H](C(=O)OCCCCCCCCCCCCCCCC(=O)N(CCCNC(C)=O)C[C@H](CCNC(C)=O)OC(C)=O)[C@@]5(CCC[C@@H](C)O5)NC(=[N+]34)N2)O1", "inactive"),
    ("O=[N+]([O-])c1cc2ccc1OCc1cccc(n1)COc1ccc(cc1[N+](=O)[O-])/C=N\\CCCCCCCC/N=C\\2", "inactive"),
    ("O=Cc1ccccc1B(O)O", "inactive"),
    ("CCOc1ccc(/N=N/C2C(=O)N(C(=O)CC(=O)Nc3ccccc3OC)N=C2C)cc1 (stereo not given)", "inactive"),
    ("Cc1c(C(=O)CC(=O)C(=O)Nc2c(C(C)C)cccc2C(C)C)[n+]([O-])c2ccccc2[n+]1[O-]", "inactive"),
    ("COC(=O)c1nc2n(n1)-c1ccccc1C(=O)N(Cc1ccccc1)C2", "inactive"),
    ("Cc1cnc2c(c1)C(=O)N(c1ccc(Br)cc1)S2(=O)=O", "inactive"),
]

====

# System: SNB-19
# ASSAY_NOTES: NCI tumour cell line growth inhibition, 48 h
The source made the active and inactive calls. Cut-off read from the data, not from the text of the source: active = GI50 up to about 1.1 µM and inactive = higher.

# COMPOUND, TESTED_TARGET, GI50
rows = [
    ("Nc1nc2c(c(-c3ccccc3Cl)n1)COC/C2=C\\c1ccccc1Cl", "SNB-19", "15.7 µM (inactive)"),
    ("COc1ccc(Nc2n[nH]c(NS(=O)(=O)c3cc(C)c(Cl)cc3S)n2)cc1", "SNB-19", "> 100 µM (inactive)"),
    ("O=C(NC(Cc1ccc(Br)cc1)C(=O)O)c1ccc(I)cc1 (stereo unspecified)", "SNB-19", "> 81.3 µM (inactive)"),
    ("CC12OC3(C)OC(=O)C(c4ccccc4)(O1)C3(C)O2 (stereo unspecified)", "SNB-19", "> 100 µM (inactive)"),
    ("CC1(O)C(C)(O)C2(C)O[Te]3(OC12C)OC1(C)C(C)(O)C(C)(O)C1(C)O3 (stereo unspecified)", "SNB-19", "28.1 µM (inactive)"),
    ("N#CCCC1(CCC#N)S(=O)(=O)OCCOS1(=O)=O", "SNB-19", "48.8 µM (inactive)"),
    ("O=C(NC(=S)Nc1ccc(Br)cc1)c1ccc2c(c1)Sc1ccccc1S2", "SNB-19", "25.2 µM (inactive)"),
    ("O=S(=O)(c1cc(Cl)ccc1Cl)n1ccnc1", "SNB-19", "70.8 µM (inactive)"),
    ("O=C(c1ccccc1)C1N=NCC1c1ccc([N+](=O)[O-])cc1 (stereo unspecified)", "SNB-19", "54.8 µM (inactive)"),
    ("O=C(O)c1cc(C(=O)O)cc(N2C(=O)c3ccccc3C2=O)c1", "SNB-19", "> 100 µM (inactive)"),
    ("Cc1ccnc(NS(=O)(=O)c2ccc(NC(=O)c3ccc4nc5ccccc5c(Nc5ccc(S(=O)(=O)Nc6nccc(C)n6)cc5)c4c3)cc2)n1", "SNB-19", "51.1 µM (inactive)"),
    ("CCCCCCN(N)C(=O)CC#N", "SNB-19", "> 10 µM (inactive)"),
    ("C=C(C)[C@@H]1CCC2=C(CC[C@]3(C)[C@@H]([C@@H](CCC=C(C)C)C(=O)O)[C@H](O)C[C@@]23C)[C@@]1(C)CCC(=O)O", "SNB-19", "46 µM (inactive)"),
    ("O=NN(CCCl)C(=O)N[C@H]1CC[C@H](CC(=O)O)CC1", "SNB-19", "59.3 µM (inactive)"),
    ("N#CC(=S)Nc1cccc(Cl)c1", "SNB-19", "54.5 µM (inactive)"),
    ("C[N+](C)(C)/N=C\\c1ccc(O)c(O)c1", "SNB-19", "> 100 µM (inactive)"),
    ("COc1ccc(/N=N/c2c(-c3ccccc3)nn(C(=O)CC(=O)Nc3ccc(OC)cc3)c2-c2ccccc2)cc1", "SNB-19", "29.9 µM (inactive)"),
    ("C=CCc1cccc2cc(C(=O)NC3CCCCC3)c(=N)oc12", "SNB-19", "21.4 µM (inactive)"),
    ("N=c1oc2ccc(Cl)cc2cc1C(=O)Nc1ccccc1", "SNB-19", "> 62.5 µM (inactive)"),
    ("CC1=C(C#N)C(C#N)(C#N)C(NN(C)C)C1 (stereo unspecified)", "SNB-19", "> 10 µM (inactive)"),
    ("COc1cc(/C=C2/SC(c3ccccc3)N(c3cccc(NC(C)=O)c3)C2=O)cc(OC)c1OC (stereo unspecified)", "SNB-19", "31 µM (inactive)"),
    ("CN1C2CC(C#N)C1C=CC2=O (stereo unspecified)", "SNB-19", "87.1 µM (inactive)"),
    ("CC(=O)OC1CCC2(C)C(=CCC3C2CCC2(C)C(C(C)C(=O)O)CCC32)C1 (stereo unspecified)", "SNB-19", "> 100 µM (inactive)"),
    ("COCNC(=NC#N)NCOC", "SNB-19", "> 100 µM (inactive)"),
    ("CC(C)(C)OC(=O)[C@@H]1CCC(=O)N1C1(c2ccccc2)c2ccccc2-c2ccccc21", "SNB-19", "> 100 µM (inactive)"),
    ("Cc1ccc(C2CC(=O)CC(c3ccc(C)cc3)C23C(=O)NC(=O)NC3=O)cc1 (stereo unspecified)", "SNB-19", "> 100 µM (inactive)"),
    ("N#C/C(=C\\c1c(O)cc(O)cc1O)C(N)=O", "SNB-19", "> 100 µM (inactive)"),
    ("COCC12CCC(OC)C34C5CC6(O)C(OC)C=C(C5C6OC(=O)c5ccccc5)C(C(OC)C13)C4N(C)C2 (stereo unspecified)", "SNB-19", "> 100 µM (inactive)"),
    ("COC(=O)C1(Cc2ccc(C)cc2)Cc2c(C)cccc2C1=O (stereo unspecified)", "SNB-19", "17.7 µM (inactive)"),
    ("CCOP(=O)(/C=C/n1cc(C)c(=O)[nH]c1=O)OCC", "SNB-19", "> 100 µM (inactive)"),
    ("O=C(O)CCC1c2[nH]c3ccccc3c2CCN1Cc1ccccc1 (stereo unspecified)", "SNB-19", "> 100 µM (inactive)"),
    ("CCCCCCCCNC(=O)C1=C(C)NC(C)=C(C(=O)NCCCCCCCC)C1", "SNB-19", "> 100 µM (inactive)"),
    ("O=C(c1c2c(cc3c1CC1(Cc4cc5c(cc4C1)CCCC5)C3)CCCC2)C(Br)Br", "SNB-19", "> 40.9 µM (inactive)"),
    ("COC(=O)C1=C2Nc3ccccc3C23CCN2C(O)C4(CC5CC67CCOC6CCN6CCC8(c9cccc(OC)c9N(C4)C58O)C67)C4OCCC4(C1)C23 (stereo unspecified)", "SNB-19", "45.7 µM (inactive)"),
    ("CCOC(=O)CCC(NC(=O)c1ccc(Nc2cnc3ccc(C(F)(F)F)cc3n2)cc1)C(=O)OCC (stereo unspecified)", "SNB-19", "13 µM (inactive)"),
    ("COc1ccc(C2CC(c3ccc(NS(=O)(=O)c4cc([N+](=O)[O-])ccc4C)cc3)=NN2S(=O)(=O)c2cc([N+](=O)[O-])ccc2C)cc1 (stereo unspecified)", "SNB-19", "61.2 µM (inactive)"),
    ("C/C(=N/N)c1ccc2[nH]c3c(C)cc([N+](=O)[O-])c(C)c3c2c1", "SNB-19", "14.4 µM (inactive)"),
    ("CC1(O)C2(c3ccccc3)CCC[N+]1(C)CC2 (stereo unspecified)", "SNB-19", "> 100 µM (inactive)"),
    ("O=C1CCC2(CC1)SCCCS2", "SNB-19", "> 100 µM (inactive)"),
    ("C1=Cc2nc1c(-c1ccccc1)c1ccc([n-]1)c(-c1ccccc1)c1nc(c(-c3ccccc3)c3ccc([n-]3)c2-c2ccccc2)C=C1.[Zn+2]", "SNB-19", "> 100 µM (inactive)"),
    ("CCCC(=O)OC[n+]1cccc(-c2c(COC(=O)NC(C)C)c(COC(=O)NC(C)C)c3n2CCC3)c1", "SNB-19", "> 100 µM (inactive)"),
]

Data provenance is ChEMBL document CHEMBL1201862.
